Assay: single-oral-dose pharmacokinetic study, plasma AVA and metabolite concentrations in pediatric hypercholesterolemia stratified by SLCO1B1 c.521T>C genotype
Type: in vivo, human
Settings: female, human, plasma, oral, 10 mg, Table S3; Gender: Female; mean (± SD); read-out: AUC0-24
Each entry below carries its reported AUC(0-t).
Enter your answer as a number in ng·h/mL; do not include the unit.

In the examples that follow, each entry is paired with its recorded AUC(0-t).
CC(C)c1c(C(=O)Nc2ccccc2O)c(-c2ccccc2)c(-c2ccc(F)cc2)n1CCC1CC(O)CC(=O)O1 (stereo not drawn) [2-Hydroxy Atorvastatin Lactone, 2-hydroxyatorvastatin lactone]; 18
CC(C)c1c(C(=O)Nc2ccccc2)c(-c2ccccc2)c(-c2ccc(F)cc2)n1CC[C@@H]1C[C@@H](O)CC(=O)O1; 12.1

We now examine a further compound.
Value lookup for AUC(0-t); key = CC(C)c1c(C(=O)Nc2ccccc2O)c(-c2ccccc2)c(-c2ccc(F)cc2)n1CC[C@@H](O)C[C@@H](O)CC(=O)O [2-Hydroxy Atorvastatin, 2-hydroxyatorvastatin]
7.3

====

Experiment: single-oral-dose pharmacokinetic study, plasma AVA and metabolite concentrations in pediatric hypercholesterolemia stratified by SLCO1B1 c.521T>C genotype
Assay type: in vivo, human
Conditions: human, plasma, oral, 10 mg, Table S3; Ethnicity: White, Hispanic; mean (± SD); read-out: AUC0-24
VALUE KIND: AUC(0-t) (ng·h/mL)
Enter your answer as a number in ng·h/mL; do not include the unit.

In the examples that follow, each entry is paired with its recorded AUC(0-t).
CC(C)c1c(C(=O)Nc2ccccc2O)c(-c2ccccc2)c(-c2ccc(F)cc2)n1CC[C@@H](O)C[C@@H](O)CC(=O)O [2-Hydroxy Atorvastatin, 2-hydroxyatorvastatin]; 7.6
CC(C)c1c(C(=O)Nc2ccccc2O)c(-c2ccccc2)c(-c2ccc(F)cc2)n1CCC1CC(O)CC(=O)O1 (stereo not drawn) [2-Hydroxy Atorvastatin Lactone, 2-hydroxyatorvastatin lactone]; 17.2

We now examine a further compound.
Value lookup for AUC(0-t); key = CC(C)c1c(C(=O)Nc2ccccc2)c(-c2ccccc2)c(-c2ccc(F)cc2)n1CC[C@@H]1C[C@@H](O)CC(=O)O1
13.2

====

Assay: single-oral-dose pharmacokinetic study, plasma AVA and metabolite concentrations in pediatric hypercholesterolemia stratified by SLCO1B1 c.521T>C genotype
Format: in vivo, human
Conditions: human, plasma, oral, 10 mg, Table S3; Tanner Pubic Stage 4; mean (± SD); read-out: AUC0-24
Each entry below carries its reported AUC(0-t).
Enter your answer as a number in ng·h/mL; do not include the unit.

CC(C)c1c(C(=O)Nc2ccccc2O)c(-c2ccccc2)c(-c2ccc(F)cc2)n1CC[C@@H](O)C[C@@H](O)CC(=O)O [2-Hydroxy Atorvastatin, 2-hydroxyatorvastatin]; 3.6
CC(C)c1c(C(=O)Nc2ccccc2O)c(-c2ccccc2)c(-c2ccc(F)cc2)n1CCC1CC(O)CC(=O)O1 (stereo not drawn) [2-Hydroxy Atorvastatin Lactone, 2-hydroxyatorvastatin lactone]; 8.5

Value lookup for AUC(0-t); key = CC(C)c1c(C(=O)Nc2ccccc2)c(-c2ccccc2)c(-c2ccc(F)cc2)n1CC[C@@H]1C[C@@H](O)CC(=O)O1
5

====

Experiment: single-oral-dose pharmacokinetic study, plasma AVA and metabolite concentrations in pediatric hypercholesterolemia stratified by SLCO1B1 c.521T>C genotype
Format: in vivo, human
Details: human, plasma, po, 10 mg, entire cohort (n = 28); median (IQR); single oral 10 mg dose
VALUE KIND: Cmax

In the examples that follow, each entry is paired with its recorded Cmax.
CC(C)c1c(C(=O)Nc2ccccc2O)c(-c2ccccc2)c(-c2ccc(F)cc2)n1CCC1CC(O)CC(=O)O1 (stereo not drawn) [2-Hydroxy Atorvastatin Lactone, 2-hydroxyatorvastatin lactone]; 1.1 ng/mL
CC(C)c1c(C(=O)Nc2ccccc2)c(-c2ccccc2)c(-c2ccc(F)cc2)n1CC[C@@H]1C[C@@H](O)CC(=O)O1 [Atorvastatin Lactone, atorvastatin lactone]; 0.9 ng/mL

We now examine a further compound.
Value lookup for Cmax; key = CC(C)c1c(C(=O)Nc2ccccc2O)c(-c2ccccc2)c(-c2ccc(F)cc2)n1CC[C@@H](O)C[C@@H](O)CC(=O)O [2-Hydroxy Atorvastatin, 2-hydroxyatorvastatin]
0.7 ng/mL
